FYI, the data here is from PubChem BioAssay AID1996.

# setup-conditions: buffer; pH 7.4; 200.0 µM
property-label: solubility kinetic

Input line: Any idea what solubility kinetic was measured for COc1ccc2c(c1)CC/C2=N\OC(=O)c1ccccc1C ?
Output line: < 0.6 µg/mL

Input line: Any idea what solubility kinetic was measured for COc1cc(/C=C2\SC(N3CCC(C)CC3)=NC2=O)ccc1O ?
Output line: > 49.9 µg/mL

Input line: Any idea what solubility kinetic was measured for CCCNC(=O)N1CCCC(C(N)=O)C1 (centres undefined) ?
Output line: > 32 µg/mL

Input line: Any idea what solubility kinetic was measured for O=C1OC2(O)C3C4C=CC(C4)C3C(=O)N2c2ccccc21 (centres undefined) ?
Output line: > 42.5 µg/mL

Input line: Any idea what solubility kinetic was measured for CC(=O)c1c(C)[nH]c(C(=O)Nc2ccccn2)c1C ?
Output line: > 38.6 µg/mL

###

# setup-conditions: buffer; pH 7.4; 200.0 µM
property-label: solubility kinetic

compound	reported-value
CCn1cc(C(=O)NCCC(=O)NCCCO)c(=O)c2cc3c(cc21)OCO3	> 58.4 µg/mL
Cc1[nH]c2ccc(OCc3ccccc3)cc2c1CCN.Cl	> 47.5 µg/mL
COC(=O)[C@H](CC(C)C)NC(=O)N1CCC(C)CC1	> 40.6 µg/mL

Input line: Any idea what solubility kinetic was measured for CCCN1C(=O)CC(=O)N=C1SCC(=O)Nc1ccccc1F ?
Output line: > 50.6 µg/mL

Input line: Any idea what solubility kinetic was measured for COc1ccc(C2NC(=S)NC3=C2N2CCC3CC2)cc1 (stereo not drawn) ?
Output line: > 45.2 µg/mL

Input line: Any idea what solubility kinetic was measured for CCCNC(=O)c1ccc(COc2ccc(C)cc2)o1 ?
Output line: > 41 µg/mL

###

Overview of reported solubility kinetic across a group of molecules:
# setup-conditions: buffer; pH 7.4; 200.0 µM

molecule	solubility kinetic
CCOC(=O)c1cncc(C#CCO)c1	> 30.8 µg/mL
O=C1NCCO1	> 13.1 µg/mL
COc1ccc(NC(=O)c2cc(C)no2)cc1OC	> 39.3 µg/mL
CCC(=O)c1ccc(OCC(=O)Nc2ccc(S(=O)(=O)Nc3cc(C)nc(C)n3)cc2)cc1	> 70.3 µg/mL

Input line: Any idea what solubility kinetic was measured for O=C(O)CSc1nc2ccccc2n1Cc1ccccc1 ?
Output line: > 44.8 µg/mL

Input line: Any idea what solubility kinetic was measured for Cc1ccc(N2C(=O)C3CCCN3C2=S)cc1C (stereo unspecified) ?
Output line: > 39.1 µg/mL

###

Overview of reported solubility kinetic across a group of compounds:
# setup-conditions: buffer; pH 7.4; 200.0 µM
The answer is to be given in µg/mL; state only the numeric part.

compound	value-units	solubility kinetic
Cn1ccnc1SCC(=O)Nc1cc(F)ccc1F	µg/mL	41.8
COc1cccc(-c2onc3ccc(C(=O)/C=C/N(C)C)cc23)c1	µg/mL	14.6
CN(C)C(=O)CN1C(=O)c2cccc3cccc1c23	µg/mL	33.1
CCOC(=O)C1CCCN(C(=O)Nc2c(-c3ccccc3)noc2C)C1 (stereo not given)	µg/mL	52.4
CSc1c(CN2CCN(C)CC2)c2ccccc2n1C.Cl	µg/mL	52.9

Could you now look at the following compound, please?
Input line: Any idea what solubility kinetic was measured for COc1ccc(OC)c(NC(=O)CN2CCc3ccccc3C2)c1 ?
Output line: 14.9

###

# setup-conditions: buffer; pH 7.4; 200.0 µM
Lab note: compare solubility kinetic against 20 µg/mL. Equal or greater, write 1. Smaller, write -1.

compound	class-name
COc1ccc2nc(NC(=O)c3ccc(F)cc3)sc2c1	-1
COc1ccc(C(CCO)NC(=O)c2cccs2)cc1OC (stereo not drawn)	1

Input line: Does the reported solubility kinetic for CCOc1ccc(NC(=O)NC2CC(=O)N(c3ccc(OC)cc3)C2)cc1 (stereo not drawn) fall at or above the 20 µg/mL mark?
Output line: -1

Input line: Does the reported solubility kinetic for COc1cc(-c2c(C#N)c(N)nc3[nH]c(=S)[nH]c(=O)c23)ccc1O fall at or above the 20 µg/mL mark?
Output line: -1

Input line: Does the reported solubility kinetic for CCc1ccccc1N1CC(C(=O)Nc2nccs2)CC1=O (stereo not drawn) fall at or above the 20 µg/mL mark?
Output line: 1

Input line: Does the reported solubility kinetic for Cc1ccc(C(=O)COC(=O)C(C)N2C(=O)C3C4C=CC(C4)C3C2=O)cc1C (stereo not drawn) fall at or above the 20 µg/mL mark?
Output line: 1

Input line: Does the reported solubility kinetic for O=C(N/C(=C\c1ccco1)C(=O)N1CCCC1CO)c1ccccc1 (stereo not drawn) fall at or above the 20 µg/mL mark?
Output line: 1

###

Overview of reported log10(solubility kinetic) across a group of compounds:
# setup-conditions: buffer; pH 7.4; 200.0 µM
Kindly note that the scale is log10 and the underlying solubility kinetic is in µg/mL.

Input line: Any idea what log10(solubility kinetic) was measured for O=C1Cc2cc(S(=O)(=O)NCc3ccc(F)cc3)ccc2N1 ?
Output line: 1.22

Input line: Any idea what log10(solubility kinetic) was measured for CCC(C)NC(=O)c1cc2c(=O)n(CC)c3ccccc3c2s1 (stereo unspecified) ?
Output line: 0.36

Input line: Any idea what log10(solubility kinetic) was measured for CCOc1cccc(C(=O)Nc2ccc3c(c2)OCCO3)c1 ?
Output line: 1.44

Input line: Any idea what log10(solubility kinetic) was measured for O=C(NCc1ccccc1)c1ccc(CSc2ccccc2)o1 ?
Output line: 1.05

Input line: Any idea what log10(solubility kinetic) was measured for O=C(Nc1ccc(F)c(Cl)c1)c1cccnc1 ?
Output line: 1.39

Input line: Any idea what log10(solubility kinetic) was measured for O=[N+]([O-])c1ccc(N2CCN(c3cccc(Cl)c3)CC2)cn1 ?
Output line: 0.41

Input line: Any idea what log10(solubility kinetic) was measured for O/N=C/c1ccc2cccc(OCc3ccccc3)c2n1 ?
Output line: 0.32

Input line: Any idea what log10(solubility kinetic) was measured for O=C(CCNC(=O)c1ccccc1)NCCc1ccc(Cl)cc1 ?
Output line: 0.84

Input line: Any idea what log10(solubility kinetic) was measured for S=C(Nc1ccc(Cl)c(Cl)c1)N1CCCC1 ?
Output line: 0.52

Input line: Any idea what log10(solubility kinetic) was measured for COC(=O)/C=C1\SC(=NC(=O)c2ccc(-c3ccccc3)cc2)NC1=O ?
Output line: 0.41

###

# setup-conditions: buffer; pH 7.4; 200.0 µM
Overview of reported solubility kinetic across a group of molecules:

molecule	solubility kinetic
COC(=O)CSC(=S)N1CCCC(C)C1 (configuration not stated)	> 0.0371 mg/mL
Cc1ccc2[nH]c(C(=O)N3CCC(C(N)=O)CC3)cc2c1	> 0.0428 mg/mL
CN(C)C(=O)c1ccc(Cl)cc1[N+](=O)[O-]	> 0.0343 mg/mL
O=C(COC(=O)Cc1ccc(Cl)cc1)NCc1ccco1	> 0.0462 mg/mL
CN(C)CCCNCCCNC(=O)/C(=N\O)c1ccccc1	> 0.046 mg/mL
O=C1N=c2ccccc2=C1c1c(O)[nH]c2c(C(F)(F)F)cccc12	< 0.0004 mg/mL

Could you now look at the following molecule, please?
Input line: Any idea what solubility kinetic was measured for OCCCNc1ncnc2scc(-c3ccc(Cl)cc3)c12 ?
Output line: > 0.048 mg/mL

###

# setup-conditions: buffer; pH 7.4; 200.0 µM
Overview of reported solubility kinetic across a group of compounds:

Reference set (5 entries):
compound-structure-string	reported-value
Cc1ccc(-c2onc3ccc(Br)cc23)cc1	< 0.6 µg/mL
CC1=C(Nc2ccc(C(=O)O)cc2)C(=O)c2ccccc2C1=O	> 46.1 µg/mL
CC(=O)Nc1ccc(S(=O)(=O)NCCN2CCNC2=O)cc1Cl	> 54.1 µg/mL
O=C(NCCc1ccco1)c1ccc(OCc2cn3ccccc3n2)cc1	> 54.2 µg/mL
O=C1CN(C(=O)c2cccc([N+](=O)[O-])c2)CC(=O)N1	> 39.5 µg/mL

Input line: Any idea what solubility kinetic was measured for O=C(O)CCC(=O)N(Cc1ccccc1)Cc1ccccc1 ?
Output line: > 44.6 µg/mL

###

# setup-conditions: buffer; pH 7.4; 200.0 µM
property-label: log10 of solubility kinetic (log10 of the value in µg/mL)
Kindly note that the scale is log10 and the underlying solubility kinetic is in µg/mL.

Reference set (5 entries):
compound	log10 of solubility kinetic
CCC(C)c1ccc(NC(=O)NCc2cccnc2)cc1 (configuration not stated)	1.61
CN(C)C=Nc1c(Br)cc(Br)c2nonc12	0.78
COc1cc([N+](=O)[O-])ccc1NC(=O)CN1CCCC1	1.57
Cc1cnc(NC(=O)C2CC(=O)N(c3ccc4c(c3)OCCO4)C2)s1 (configuration not stated)	1.31
Cc1ccc2nc3c(cc(C#N)c(=N)n3Cc3cccnc3)c(=O)n2c1	0.32

Input line: Any idea what log10 of solubility kinetic was measured for O=C(Nc1ccc(NC(=O)c2cccs2)cc1Cl)c1ccco1 ?
Output line: 0.04

Input line: Any idea what log10 of solubility kinetic was measured for COc1ccc(NC(=O)c2ccc(S(=O)(=O)C(F)F)cc2)c(OC)c1 ?
Output line: 1.12
